- TGT: Voltage-gated potassium channel subunit beta-2 (Rattus norvegicus) (UniProt P62483)
- Sequence (P62483 whole entry, looked up): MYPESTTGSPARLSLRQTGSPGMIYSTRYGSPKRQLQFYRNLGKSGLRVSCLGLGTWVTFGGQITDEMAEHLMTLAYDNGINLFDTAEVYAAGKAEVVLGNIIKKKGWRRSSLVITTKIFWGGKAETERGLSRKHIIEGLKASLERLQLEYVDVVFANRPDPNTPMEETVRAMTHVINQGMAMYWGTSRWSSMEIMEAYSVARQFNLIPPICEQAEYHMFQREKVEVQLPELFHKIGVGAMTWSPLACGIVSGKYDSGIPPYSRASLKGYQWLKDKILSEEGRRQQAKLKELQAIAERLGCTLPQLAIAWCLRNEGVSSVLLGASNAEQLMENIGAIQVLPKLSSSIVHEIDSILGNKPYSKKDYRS
- EXPERIMENTAL_PROTOCOL: KvBeta positive modulators, primary screen, biochemical, NADPH fluorescence (AID 623);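 further: fluorescence intensity change per second fitted from 20 to 320 s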
- SETTINGS: Recombinant KvBeta, NADPH fluorescence decrease slope, 10 min; at 10 µM; stronger effect = lower value
QUANTITY: NADPH fluorescence slope
The response must contain the number and no unit.

Value sought: NADPH fluorescence slope, system Voltage-gated potassium channel subunit beta-2 (Rattus norvegicus) (UniProt P62483), item C=C(C)CSc1nc(N)c2c3c(sc2n1)CCC3 . Result: -0.000115

Value sought: NADPH fluorescence slope, system Voltage-gated potassium channel subunit beta-2 (Rattus norvegicus) (UniProt P62483), item COc1cc2c(cc1OC)-c1nnc(-c3cccs3)n1C(C)(C)C2 . Result: -1.8e-05

Value sought: NADPH fluorescence slope, system Voltage-gated potassium channel subunit beta-2 (Rattus norvegicus) (UniProt P62483), item COc1cc(NC(=O)c2cccs2)cc(OC)c1 . Result: -4.5e-05

Value sought: NADPH fluorescence slope, system Voltage-gated potassium channel subunit beta-2 (Rattus norvegicus) (UniProt P62483), item Cc1onc(-c2ccccc2Cl)c1C(=O)Nc1cccnc1 . Result: 2.6e-05

* * *

- EXPERIMENTAL_PROTOCOL: inhibitors of mutant huntingtin aggregation, primary screen, imaging, exon1htt(103Q)mCFP cells, high-content imaging (AID 483);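 further: compound exposure lasted 3 days before fixation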
- SETTINGS: exon1htt(103Q)mCFP cell line, aggregate imaging, at 2 µM
Calls of active or inactive are those of the source.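 The calls were made as follows: active = visual image review flags a hit and inhibition of aggregation exceeds 20%; inconclusive = visual hit but inhibition at or below 20%; inactive = no hit on visual image review.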
Bench note: report the call from active, inactive

Check the results log: what was the call for Cn1nnnc1SCC(=O)Nc1ccccc1-c1ccccc1 ?
inactive

Check the results log: what was the call for CCOC(=O)Cn1c(CCC(=O)O)ccc1-c1ccc(F)cc1 ?
inactive

Check the results log: what was the call for C[C@H](NC(=O)NCc1cccs1)C(=O)O ?
inactive

Check the results log: what was the call for CC(=O)OCCNc1cc(N2CCN(C)CC2)c2noc3c2c1C(=O)c1ccccc1-3 ?
inactive

Check the results log: what was the call for COc1cccc(C(c2nnnn2CCc2ccccc2)N2CCN(c3ccccc3)CC2)c1OC (stereo unspecified) ?
inactive

Check the results log: what was the call for Nc1ccc(C(=O)OCCCc2nc3ccccc3[nH]2)cc1 ?
inactive

Check the results log: what was the call for Nc1nnc(C(=O)c2ccccc2N)s1 ?
inactive

Check the results log: what was the call for O=C(CSc1nnc(CNC(=O)c2c(F)cccc2Cl)o1)c1ccccc1 ?
active

Check the results log: what was the call for CCOC(=O)c1cc2c(=O)n3ccccc3nc2n(CC2CCCO2)c1=NC(C)=O (stereo unspecified) ?
inactive

Check the results log: what was the call for Cc1ccnc(SCCn2c(N3CCN(Cc4ccccc4)CC3)nc3c2c(=O)[nH]c(=O)n3C)n1 ?
inactive

Check the results log: what was the call for CC(=O)Nc1ccc(S(=O)(=O)Nc2nc3ccccc3nc2N2CCCC2)cc1 ?
inactive

Check the results log: what was the call for C=CCSc1nc2sc(C)c(C)c2c(=O)[nH]1 ?
inactive

Check the results log: what was the call for O=C(OCN1C(=O)c2ccccc2C1=O)C1CCCCC1 ?
inactive

Check the results log: what was the call for COc1ccc(Cc2noc(-c3ccc(C)cc3)n2)cc1 ?
inactive

Check the results log: what was the call for COc1ccc(C2CC(=O)C3=C(C2)Nc2ccccc2N(C(=O)C2CC2)C3c2cccnc2)cc1OC (stereo unspecified) ?
inactive

Check the results log: what was the call for CCN(CC)CCN1C(=O)C(=O)/C(=C(/O)c2c(C)[nH]c(C(=O)OC)c2C)C1c1ccccc1OC (stereo unspecified) ?
inactive

Check the results log: what was the call for CCSc1nnc(NC(=O)C2CCCN(S(=O)(=O)c3cnc[nH]3)C2)s1 (stereo unspecified) ?
inactive

Check the results log: what was the call for Cc1cc(C)c2c(C)nn(C3CCCCC3)c2n1 ?
inactive

Check the results log: what was the call for C=C(Cl)COC(=O)[C@H]1C2C=CC(C2)C1C(=O)O (stereo partly specified) ?
inactive

Check the results log: what was the call for COC(=O)c1[nH]c(C)c(/C(O)=C2\C(=O)C(=O)N(CCN3CCOCC3)C2c2cccs2)c1C (stereo unspecified) ?
inactive

Check the results log: what was the call for Cc1ccc(-n2ncc3c(N4CCCC(C)C4)ncnc32)c(C)c1 (stereo unspecified) ?
inactive

* * *

So I've got a bunch of compounds here, and I need their inhibition values.
- TGT: Dual specificity protein phosphatase 6 (Homo sapiens)
- EXPERIMENTAL_PROTOCOL: DUSP6 inhibitors restoring Erk phosphorylation by chemical complementation, primary imaging in DUSP6-transfected HeLa (AID 609);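 further: phospho-Erk level distribution per well compared with pooled transfected vehicle control wells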
- SETTINGS: HeLa MKP-3 transfected, phospho-Erk imaging KS statistic; at 10 µM; stronger effect = higher value; cells stimulated with TPA for 15 min
Please state the figure in %; there is no need to write the unit.

The compound listed as CCc1[nH]c(=O)c(C#N)c2c1CSC(C)(C)C2 shows inhibition equal to -6.06

The compound listed as C=C(C)Cn1c(-c2ccc(OC)cc2)nc2ccccc21 shows inhibition equal to -6.86

The compound listed as CCOC(=O)C(C)c1nc2ccccc2[nH]c1=O (centres undefined) shows inhibition equal to 1.9e-07

The compound listed as C=CCN(C(=O)CCC(=O)O)C1CC(=O)N(c2ccc(OC)cc2)C1=O (centres undefined) shows inhibition equal to 14.7

* * *

- TGT: Voltage-gated potassium channel subunit beta-2 (Rattus norvegicus) (UniProt P62483)
- EXPERIMENTAL_PROTOCOL: KvBeta positive modulators, primary screen, biochemical, NADPH fluorescence (AID 623);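 further: fluorescence intensity change per second fitted from 20 to 320 s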
- SETTINGS: Recombinant KvBeta, NADPH fluorescence decrease slope, 10 min; at 10 µM; stronger effect = lower value
QUANTITY: NADPH fluorescence slope
The response must contain the number and no unit.

The compound listed as COc1ccc(Cn2nnnc2CN2CCOCC2)cc1 shows NADPH fluorescence slope equal to 1.6e-05

The compound listed as O=C(O)c1ccnc(C(=O)O)c1 shows NADPH fluorescence slope equal to -0.000101

The compound listed as COCc1nnc(NC(=O)c2ccc(S(=O)(=O)N(C)c3ccccc3)cc2)o1 shows NADPH fluorescence slope equal to 1.3e-05

* * *

So I've got a bunch of compounds here, and I need their fluorescence slope values.
- TGT: Voltage-gated potassium channel subunit beta-2 (Rattus norvegicus)
- EXPERIMENTAL_PROTOCOL: KvBeta enzyme negative modulators, primary screen, biochemical, NADPH fluorescence (AID 622);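 further: slope of raw intensity against log time taken from 70 to 1610 s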
- SETTINGS: recombinant KvBeta, 4-cyanobenzaldehyde reduction, at 10 µM, stronger effect = higher value
The response must contain the number and no unit.

The compound listed as CC(=O)c1cnc2cc(-c3ccccc3)nn2c1C shows fluorescence slope equal to -0.343

The compound listed as Cc1cc(C(=O)COC(=O)C2COc3ccccc3O2)c(C)n1CC1CCCO1 (stereo not drawn) shows fluorescence slope equal to -0.373

The compound listed as O=C(CSc1nc2ccsc2c(=O)n1NC(=O)c1ccccc1)Nc1nccs1 shows fluorescence slope equal to -0.342

The compound listed as O=C(CCN1C(=O)COc2ccccc21)N1CCN(c2ccccn2)CC1 shows fluorescence slope equal to -0.591

The compound listed as CC1CCCN(S(=O)(=O)c2coc(C(N)=O)c2)C1 (stereo not drawn) shows fluorescence slope equal to -0.6

The compound listed as CCCc1cc(Nc2c(C)n(C)n(-c3ccccc3)c2=O)n2c(nc3ccccc32)c1C#N shows fluorescence slope equal to -0.48

The compound listed as O=C(Cn1cnc2c(nnn2-c2ccc(F)cc2)c1=O)N1CCCc2ccccc21 shows fluorescence slope equal to -0.523

The compound listed as C#CC1CN(Cc2ccccc2)CC(C#C)N1C (stereo not drawn) shows fluorescence slope equal to -0.44

The compound listed as COc1cccc(OCc2nc3ccccc3[nH]2)c1 shows fluorescence slope equal to -0.57

The compound listed as CCOC(=O)N1CCN(C(=O)c2cccn3c(=O)c4sccc4nc23)CC1 shows fluorescence slope equal to -0.0756

The compound listed as O=C(COc1ccc(-c2nnc(N3CCCCC3)c3ccccc23)cc1)N1CCCCC1 shows fluorescence slope equal to -0.487

The compound listed as O=C(CNC(=O)c1cc2ccccc2o1)NCc1cccs1 shows fluorescence slope equal to -0.469

The compound listed as CCOC(=O)c1sc(NC(=O)c2noc3c2CCCC3)c(C(=O)OCC)c1C shows fluorescence slope equal to -0.549

The compound listed as CCOC(=O)c1c(C)oc2c1c1c(c3ccccc32)OCN(Cc2cccnc2)C1 shows fluorescence slope equal to -0.367

The compound listed as CC1CCN(c2ncnc3c2cnn3Cc2ccc(Cl)cc2)CC1 shows fluorescence slope equal to -0.348

The compound listed as COc1ccc(-c2nc(CSCC(=O)N3CCc4ccccc4C3)c(C)o2)cc1OC shows fluorescence slope equal to -0.603

The compound listed as CN(C)CCCN1C(=O)CSC1c1ccccc1 (stereo not drawn) shows fluorescence slope equal to -0.541

The compound listed as CCCCc1nccn1CCn1ccnc1CCCC shows fluorescence slope equal to -0.489

The compound listed as CCc1nnc(NC(=O)C2CCCN2S(=O)(=O)c2ccc(C)cc2)s1 (stereo not drawn) shows fluorescence slope equal to -0.41

The compound listed as CCOC(=O)c1cc(C)sc1N1C(=O)C2C3C=CC(C3)C2C1=O (stereo not drawn) shows fluorescence slope equal to -0.543

The compound listed as CCOC(=O)C(NC(C)=O)(NS(=O)(=O)c1ccccc1)C(F)(F)F (stereo not drawn) shows fluorescence slope equal to -0.616

The compound listed as CC1CCc2c(sc(N)c2C(N)=O)C1 (stereo not drawn) shows fluorescence slope equal to -0.371

The compound listed as CC(=O)c1ccccc1Oc1nc(CN2CCOCC2)nc2scc(-c3cccs3)c12 shows fluorescence slope equal to -0.478
